Cited source: patent US20220185898A1

MEASURED_ON: T1, biotinylated mouse Sortilin monomer (mouse, UniProt Q6PHU5 74-754, limits assumed, biotinylated)
T1 construct: also called Bt-msSort
ASSAY_TEXT: MSD-SET, Fab
MEASURED_PARAMETER: Kd (nM)
The reply should be a number in nM, with the unit left off.

Please indicate Kd recorded for S-2-2 Fab (Fab, V domains shown, Fab by papain digestion) VH: QVQLVQSGAEVKKPGASVKVSCKASGYTFVAYYMHWVRQAPGQGLEWMGWINPNSGATRYAQKFQGRVTMTRDTSISTAYMELSRLRSDDTAVYYCARGKRSSGWYEGYGMDVWGQGTTVTVSS VL: DIQMTQSPSSLSASVGDRVTITCRASQSISSYLNWYQQKPGKAPKLLIYAASSLQSGVPSRFSGSGSGTDFTLTISSLQPEDFATYYCQQSDVSPITFGGGTKVEIK
0.79

Please indicate Kd recorded for S-22-7 Fab (Fab, V domains shown, Fab by papain digestion) VH: QVQLVQSGAEVKKPGSSVKVSCKASGGTFSSYAISWVRQAPGQGLEWMGGIIPGFGRANYAQKFQGRVTITADESTSTAYMELSSLRSEDTAVYYCARQGRKTGYYYYYGMDVWGQGTTVTVSS VL: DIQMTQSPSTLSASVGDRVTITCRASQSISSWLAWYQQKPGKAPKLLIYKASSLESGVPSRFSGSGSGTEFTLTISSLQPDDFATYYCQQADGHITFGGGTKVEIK
0.57

Please indicate Kd recorded for S-15-14 Fab (Fab, V domains shown, Fab by papain digestion) VH: QVQLVQSGAEVKKPGASVKVSCKASGYTFTSQYMSWVRQAPGQGLEWMGIINPYGGSTSYAQKFQGRVTMTRDTSTSTVYMELSSLRSEDTAVYYCARDPSGIAAAGPASRYYYGMDVWGQGTTVTVSS VL: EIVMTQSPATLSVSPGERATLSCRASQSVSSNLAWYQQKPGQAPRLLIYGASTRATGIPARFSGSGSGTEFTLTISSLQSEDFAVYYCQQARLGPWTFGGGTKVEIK
0.1

Please indicate Kd recorded for S-2-1 Fab (Fab, V domains shown, Fab by papain digestion of the IgG) VH: QVQLVQSGAEVKKPGASVKVSCKASGYTFGAYYMHWVRQAPGQGLEWMGWINPNSGFTRYAQKFQGRVTMTRDTSISTAYMELSRLRSDDTAVYYCARGKRSSGWYEGYGMDVWGQGTTVTVSS VL: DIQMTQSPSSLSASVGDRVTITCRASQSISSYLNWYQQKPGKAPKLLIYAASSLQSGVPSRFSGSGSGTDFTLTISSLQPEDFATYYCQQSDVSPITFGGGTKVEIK
0.73
